Target: porcine pancreatic α-amylase (PPA) (Sus scrofa, UniProt P00690)
Construct: purchased Sigma-Aldrich Co., Ltd., Dorset, UK
Experiment: Direct chromogenic assay, CNPG3 as substrate
Format: biochemical
Conditions: extracts per total anthocyanin content
Experimental: The inhibition of α-amylase activity was measured according to the method described by Kalita, Holm, LaBarbera, Petrash, and Jayanty with some modifications. […] This was followed by the addition of 50 µL of 2 mM CNPG3 substrate, diluted in phosphate buffer. The change in absorbance, indicating the release of p-nitrophenol as a reaction product, was recorded in 1 min intervals at 405 nm over a 10 min period (at 37 °C) using a Tecan Spark 10 M microplate reader. […]
MEASURE: IC50 (µM)

INSERT INTO results (smiles_representation, reading_unit, measured_result) VALUES
  ('Oc1cc(O)c2cc(O)c(-c3ccc(O)c(O)c3)[o+]c2c1', 'µM', 491);

----------
Target: porcine pancreatic α-amylase (PPA) (Sus scrofa)
Construct: purchased Sigma-Aldrich Co., Ltd., Dorset, UK
Sequence (P00690 16-511): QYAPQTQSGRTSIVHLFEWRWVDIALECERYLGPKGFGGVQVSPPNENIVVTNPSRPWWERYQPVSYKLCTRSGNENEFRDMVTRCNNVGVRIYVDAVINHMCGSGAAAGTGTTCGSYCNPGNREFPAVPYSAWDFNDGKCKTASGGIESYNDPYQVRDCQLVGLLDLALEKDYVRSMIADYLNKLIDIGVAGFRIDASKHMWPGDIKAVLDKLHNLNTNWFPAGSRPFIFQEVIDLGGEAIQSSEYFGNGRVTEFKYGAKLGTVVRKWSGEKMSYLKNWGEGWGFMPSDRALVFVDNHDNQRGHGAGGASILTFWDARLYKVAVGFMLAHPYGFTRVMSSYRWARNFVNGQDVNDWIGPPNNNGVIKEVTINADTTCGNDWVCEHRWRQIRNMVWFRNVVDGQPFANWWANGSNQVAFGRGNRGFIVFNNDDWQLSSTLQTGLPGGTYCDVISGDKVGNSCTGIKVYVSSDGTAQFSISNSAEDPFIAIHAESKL
Experiment: Direct chromogenic assay, CNPG3 as substrate
Format: biochemical
pIC50: −log10 of the molar value.
MEASURE: pIC50

INSERT INTO assay_data (compound, measured_target, measured_result) VALUES
  ('OC[C@H]1O[C@@H](Oc2cc3c(O)cc(O)cc3[o+]c2-c2ccc(O)c(O)c2)[C@H](O)[C@@H](O)[C@H]1O [Cyanidin-3-O-galactopyranoside]', 'porcine pancreatic α-amylase (PPA) (Sus scrofa)', 3.38),
  ('Oc1cc(O)c2cc(O)c(-c3ccc(O)c(O)c3)[o+]c2c1', 'porcine pancreatic α-amylase (PPA) (Sus scrofa)', 3.31);
